For each record, write down the corresponding IC50.
biological target: recombinantly expressed human PARP-1 enzyme (Homo sapiens); experiment: PARP enzyme assay (half-maximum inhibitor concentration); conditions: DNA-activated PARP-1, 200 μM NAD, tritium-labeled NAD incorporation, room temperature, 1 hour, pH 8.0
Note: unit nM is implicit; provide only the numeric part.

What IC50 value was documented for this compound, CC(=O)Nc1ccc(S(=O)(=O)NCc2ccc(-c3c[nH]c(=O)c4c3CCCC4)o2)cc1 ?
3770

What IC50 value was documented for this compound, O=c1[nH]cc(Nc2cccc(O)c2)c2c1CCCC2 ?
1310

What IC50 value was documented for this compound, Cc1nn(C)c(C)c1CNC(=O)c1cncc(-c2c[nH]c(=O)c3c2CCCC3)c1 ?
6880

What IC50 value was documented for this compound, O=c1[nH]cc(-c2ccc(CN3CCSC3)o2)c2c1CCCC2 ?
440

What IC50 value was documented for this compound, O=C(c1cccc(Nc2c[nH]c(=O)c3c2CCCC3)c1)N1CCCC1 ?
10600

What IC50 value was documented for this compound, CS(=O)(=O)c1cccc(Nc2c[nH]c(=O)c3c2CCCC3)c1 ?
800

What IC50 value was documented for this compound, Cc1[nH]c(=O)c2c(c1-c1ccc(CNCc3cnn(C)c3)o1)CCCC2 ?
330

What IC50 value was documented for this compound, O=c1[nH]cc(-c2ccc(CN3CCN(c4ncccn4)CC3)o2)c2c1CCCC2 ?
1450

What IC50 value was documented for this compound, Cn1c(CNCc2ccc(-c3c[nH]c(=O)c4c3CCCC4)o2)nc2ccccc21 ?
4540

What IC50 value was documented for this compound, Cn1cc(CNCc2ccc(-c3c[nH]c(=O)c4c3CCCC4)o2)cn1 ?
180

What IC50 value was documented for this compound, O=c1[nH]cc(Nc2ccc(Cl)nc2)c2c1CCCC2 ?
670

What IC50 value was documented for this compound, COc1cccc(CNC(=O)c2cncc(-c3c[nH]c(=O)c4c3CCCC4)c2)c1 ?
1700

What IC50 value was documented for this compound, O=C(NCCc1ccccc1)c1cncc(-c2c[nH]c(=O)c3c2CCCC3)c1 ?
2540

What IC50 value was documented for this compound, Cc1[nH]c(=O)c2c(c1-c1ccc(CO)o1)CCCC2 ?
280

What IC50 value was documented for this compound, Cc1[nH]c(=O)c2c(c1-c1cccs1)CCCC2 ?
380

What IC50 value was documented for this compound, O=c1[nH]cc(-c2ccc(CNCC(O)c3ccccc3)o2)c2c1CCCC2 (centres unmarked) ?
110

What IC50 value was documented for this compound, O=C(c1cncc(-c2c[nH]c(=O)c3c2CCCC3)c1)N1CCCC1 ?
7700

What IC50 value was documented for this compound, Cc1[nH]c(=O)c2c(c1Nc1cccc(S(C)(=O)=O)c1)CCCC2 ?
300

What IC50 value was documented for this compound, CN(Cc1cccc([N+](=O)[O-])c1)C(=O)c1cncc(-c2c[nH]c(=O)c3c2CCCC3)c1 ?
770

What IC50 value was documented for this compound, CC(C)CC(=O)NCc1ccc(-c2c[nH]c(=O)c3c2CCCC3)o1 ?
1070

What IC50 value was documented for this compound, O=C(NCCc1ccncc1)c1cncc(-c2c[nH]c(=O)c3c2CCCC3)c1 ?
820

What IC50 value was documented for this compound, Cc1[nH]c(=O)c2c(c1-c1cccnc1)CCCC2 ?
740

What IC50 value was documented for this compound, NS(=O)(=O)c1ccc(CCNC(=O)c2cncc(-c3c[nH]c(=O)c4c3CCCC4)c2)cc1 ?
8270

----------
target: recombinantly expressed human PARP-1 enzyme (Homo sapiens, UniProt P09874); experiment: PARP enzyme assay (half-maximum inhibitor concentration); details: DNA-activated PARP-1, 200 μM NAD, tritium-labeled NAD incorporation, room temperature, 1 hour, pH 8.0
Sequence (P09874 whole entry): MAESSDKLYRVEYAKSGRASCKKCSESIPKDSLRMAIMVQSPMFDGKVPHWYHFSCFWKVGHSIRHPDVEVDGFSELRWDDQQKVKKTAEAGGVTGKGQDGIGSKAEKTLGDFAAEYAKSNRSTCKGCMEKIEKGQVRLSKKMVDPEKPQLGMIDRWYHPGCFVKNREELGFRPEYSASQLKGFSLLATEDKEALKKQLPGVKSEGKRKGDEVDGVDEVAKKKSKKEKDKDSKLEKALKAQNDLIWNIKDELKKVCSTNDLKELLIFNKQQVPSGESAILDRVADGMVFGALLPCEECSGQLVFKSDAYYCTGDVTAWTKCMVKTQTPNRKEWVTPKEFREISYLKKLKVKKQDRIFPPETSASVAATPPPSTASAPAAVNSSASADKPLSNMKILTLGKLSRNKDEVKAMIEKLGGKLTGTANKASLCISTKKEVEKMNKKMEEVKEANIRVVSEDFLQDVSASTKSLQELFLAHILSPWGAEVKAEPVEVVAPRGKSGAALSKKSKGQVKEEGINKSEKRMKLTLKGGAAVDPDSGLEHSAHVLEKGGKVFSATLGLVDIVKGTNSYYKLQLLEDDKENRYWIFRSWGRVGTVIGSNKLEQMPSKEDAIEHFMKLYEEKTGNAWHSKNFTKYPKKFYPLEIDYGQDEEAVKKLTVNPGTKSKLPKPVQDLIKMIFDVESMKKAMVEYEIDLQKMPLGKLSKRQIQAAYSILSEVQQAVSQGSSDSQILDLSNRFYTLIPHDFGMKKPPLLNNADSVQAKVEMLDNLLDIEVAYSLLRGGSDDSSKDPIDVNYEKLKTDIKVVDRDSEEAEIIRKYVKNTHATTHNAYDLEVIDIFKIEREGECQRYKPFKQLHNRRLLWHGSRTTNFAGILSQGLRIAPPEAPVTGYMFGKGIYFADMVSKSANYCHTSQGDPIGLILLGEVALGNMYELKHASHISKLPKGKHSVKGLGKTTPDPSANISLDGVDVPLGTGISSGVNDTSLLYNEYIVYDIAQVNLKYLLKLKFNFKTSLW
observedProperty: pIC50
Hey, just a heads up that pIC50 is the negative log base 10 of the concentration in molar.

What pIC50 value was documented for this compound, O=c1[nH]cc(-c2ccc(CNCc3nc4ccccc4[nH]3)o2)c2c1CCCC2 ?
6.47

What pIC50 value was documented for this compound, CCN1CCCC1CNC(=O)c1cncc(-c2c[nH]c(=O)c3c2CCCC3)c1 (centres unmarked) ?
5.29

What pIC50 value was documented for this compound, CC(=O)c1cccc(Nc2c[nH]c(=O)c3c2CCCC3)c1 ?
6.16

What pIC50 value was documented for this compound, O=c1[nH]cc(-c2ccc(CNC3Cc4ccccc4C3)o2)c2c1CCCC2 ?
6.51

What pIC50 value was documented for this compound, O=C(CNC(=O)c1cncc(-c2c[nH]c(=O)c3c2CCCC3)c1)c1ccccc1 ?
5.83

What pIC50 value was documented for this compound, Cc1cc(CNC(=O)c2cncc(-c3c[nH]c(=O)c4c3CCCC4)c2)no1 ?
5.46

What pIC50 value was documented for this compound, O=c1[nH]cc(-c2ccc(CNS(=O)(=O)c3ccc(Oc4ccccn4)cc3)o2)c2c1CCCC2 ?
5.79

What pIC50 value was documented for this compound, O=c1[nH]cc(-c2ccc(CN3CCC(O)C3)o2)c2c1CCCC2 (centres unmarked) ?
6.62

What pIC50 value was documented for this compound, O=C(NCc1ccc(-c2c[nH]c(=O)c3c2CCCC3)o1)C(F)(F)F ?
6.27

What pIC50 value was documented for this compound, O=c1[nH]cc(-c2ccc(CNCc3ccccc3)o2)c2c1CCCC2 ?
6.82

What pIC50 value was documented for this compound, CCCCNCc1ccc(-c2c(C)[nH]c(=O)c3c2CCCC3)o1 ?
6.62

What pIC50 value was documented for this compound, CN1CCN(CNCc2ccc(-c3c[nH]c(=O)c4c3CCCC4)o2)CC1 ?
6.18

What pIC50 value was documented for this compound, CC(=O)Nc1cccc(Nc2c(C)[nH]c(=O)c3c2CCCC3)c1 ?
6.85

What pIC50 value was documented for this compound, O=c1[nH]cc(-c2ccc(CN3CCCC3c3ccccn3)o2)c2c1CCCC2 (centres unmarked) ?
6.14
